All values here come from patent US8394971B2.

- Tested on: androgen receptor (rat ventral prostate cytosol) (Rattus norvegicus)
- Construct: from tissue; host or cells: ventral prostate of castrated male Sprague Dawley or Wistar rats, cytosol
- Sequence (P15207 1-902): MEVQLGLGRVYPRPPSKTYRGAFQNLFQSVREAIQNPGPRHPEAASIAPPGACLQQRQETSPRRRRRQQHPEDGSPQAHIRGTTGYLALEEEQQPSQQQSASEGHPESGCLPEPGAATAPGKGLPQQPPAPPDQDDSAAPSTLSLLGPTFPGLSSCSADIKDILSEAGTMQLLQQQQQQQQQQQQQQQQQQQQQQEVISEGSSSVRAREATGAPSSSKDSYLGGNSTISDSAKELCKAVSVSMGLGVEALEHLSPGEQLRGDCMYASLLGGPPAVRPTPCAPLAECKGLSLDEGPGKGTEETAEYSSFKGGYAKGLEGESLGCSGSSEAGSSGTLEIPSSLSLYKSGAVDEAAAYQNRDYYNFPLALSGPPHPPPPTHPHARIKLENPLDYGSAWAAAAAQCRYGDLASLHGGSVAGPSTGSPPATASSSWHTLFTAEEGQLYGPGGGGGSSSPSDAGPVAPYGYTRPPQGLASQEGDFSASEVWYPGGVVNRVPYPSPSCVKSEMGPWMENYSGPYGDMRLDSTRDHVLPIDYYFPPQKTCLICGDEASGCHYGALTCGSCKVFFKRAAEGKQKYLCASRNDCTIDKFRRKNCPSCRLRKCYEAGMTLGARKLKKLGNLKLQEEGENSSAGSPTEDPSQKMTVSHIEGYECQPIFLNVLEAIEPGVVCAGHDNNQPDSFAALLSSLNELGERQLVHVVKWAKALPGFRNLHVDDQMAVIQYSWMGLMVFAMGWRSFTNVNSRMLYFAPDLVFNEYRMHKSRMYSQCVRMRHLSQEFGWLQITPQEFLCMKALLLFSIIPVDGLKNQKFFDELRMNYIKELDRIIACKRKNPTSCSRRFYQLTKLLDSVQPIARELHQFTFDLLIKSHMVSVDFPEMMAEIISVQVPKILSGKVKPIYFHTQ
- Assay summary: Androgen Receptor Binding Using Rat Ventral Prostate Cytosol
- Assay setup: rat cytosol; concentration 1000 nM
Test readout: % Inhibition (%)
Reply numerically in %, unit not repeated.

Prompt: I'm curious: which % Inhibition was measured for CC(O)(c1cc2cc([N+](=O)[O-])c(C(F)(F)F)cc2[nH]1)S(=O)(=O)c1ccc(Cl)c(Cl)c1 (racemic) tested on androgen receptor (rat ventral prostate cytosol) (Rattus norvegicus)?
Response: 26

Prompt: I'm curious: which % Inhibition was measured for CC(O)(c1cc2cc(C#N)c(C(F)(F)F)cc2[nH]1)S(=O)(=O)c1ccc(Cl)cc1 (racemic) tested on androgen receptor (rat ventral prostate cytosol) (Rattus norvegicus)?
Response: −8.4

Prompt: I'm curious: which % Inhibition was measured for CC(O)(Sc1ccc(Cl)cc1)c1cc2cc(C#N)c(C(F)(F)F)cc2[nH]1 (racemic) tested on androgen receptor (rat ventral prostate cytosol) (Rattus norvegicus)?
Response: 14.05

Prompt: I'm curious: which % Inhibition was measured for CC(O)(Sc1ccccc1)c1cc2cc([N+](=O)[O-])c(C(F)(F)F)cc2[nH]1 (racemic) tested on androgen receptor (rat ventral prostate cytosol) (Rattus norvegicus)?
Response: 35.4

Prompt: I'm curious: which % Inhibition was measured for CC(O)(Sc1ccc(Cl)c(Cl)c1)c1cc2cc([N+](=O)[O-])c(C(F)(F)F)cc2[nH]1 (racemic) tested on androgen receptor (rat ventral prostate cytosol) (Rattus norvegicus)?
Response: 41
